Ref: patent US20030078221

assay-system: Complement C5 (Homo sapiens, UniProt P01031;P01031 P01031:19-673,P01031:678-1676)
assay-info: filter
reported-conditions: tags: Quidel
experimental-readout: pKd
The meaning of pKd here: minus log10 of the concentration in molar units.

Recorded pKd for YL-79 (ssRNA, 2'-F pyrimidines) RNA: GGGAGAUAAGAAUAAACGCUCAAGAACCACGCGGUCUCAGGCGUAGAGUCUGAGUUUACCUUGGUUUUCGACAGGAGGCUCACAACAGGC , please?
7.82

Please give the measured pKd for this binder: YL-14 (ssRNA, 2'-F pyrimidines) RNA: GGGAGAUAAGAAUAAACGCUCAAGUACGACGCGGUCCCGUGCGUGGAGUGCGGGUUUACCUUCGUAUUCGACAGGAGGCUCACAACAGGC
7.60

Recorded pKd of YL-13 (ssRNA, 2'-F pyrimidines) RNA: GGGAGAUAAGAAUAAACGCUCAAGGACGCCGCGGUCUCAGGCGCUGAGUCUGAGUUUACCUGCGUCUUCGACAGGAGGCUCACAACAGGC , please.
8.22

Dear colleague, I am looking for the recorded pKd of the following binder: YL-56 (ssRNA, 2'-F pyrimidines) RNA: GGGAGAUAAGAAUAAACGCUCAAGGUACACGCGGUCUGACGCGCUGAGUGUCAGUUUACCUUGUACUUCGACAGGAGGCUCACAACAGGC
7.92
